ENDPOINT: melting point

Incoming: I would be grateful if you could share the reported melting point for COC(=O)c1cccn1-c1ccc2c(c1)NC(=O)CC(c1cccc(C#N)c1)=N2 [Example 15] .
Outgoing: > 207 °C (dec.)

---
Incoming: I would be grateful if you could share the reported melting point for O=C1CC(c2cccc(-n3nncc3CNC3CC3)c2)=Nc2cc(Cl)c(C(F)(F)F)cc2N1 [Example 67] .
Outgoing: 206 °C

Incoming: Now the molecule N#Cc1cc(C2=Nc3cc(N4CCOCC4)c(C(F)(F)F)cc3NC(=O)C2)ccn1 [Example 2]
Outgoing: 220 °C

Incoming: Now the molecule CC(=O)OCc1coc(-c2cccc(C3=Nc4ccc(-n5cccc5)cc4NC(=O)C3)c2)n1 [Example 78]
Outgoing: 206 to 207 °C

Incoming: Now the molecule O=C1CC(c2cccc(-c3csc(C(=O)NCCO)n3)c2)=Nc2ccc(-n3cccc3)cc2N1 [Example 32]
Outgoing: 236 to 238 °C

Incoming: Now the molecule COc1cc2c(cc1C(F)(F)F)NC(=O)CC(c1ccnc(C#N)c1)=N2 [Example 44]
Outgoing: 227 °C

Incoming: Now the molecule O=C1CC(c2cccc(-c3ncco3)c2)=Nc2ccc(-n3cccc3)cc2N1 [Example 22]
Outgoing: 251 to 253 °C

Incoming: Now the molecule O=C1CC(c2cccc(-n3cnnc3)c2)=Nc2cc(N3CCOCC3)c(C(F)(F)F)cc2N1 [Example 50]
Outgoing: 233 to 236 °C

###

Recorded measurements of melting point, one per entry

// solved cases for melting point follow
Incoming: I would be grateful if you could share the reported melting point for N#Cc1cccc(C2=Nc3ccc(-n4cc(C#N)c(-c5ccccc5Cl)c4)cc3NC(=O)C2)c1 [Example 5] .
Outgoing: 252 °C (dec.)

Incoming: Now the compound O=C1CC(c2cccc(-c3ocnc3C(=O)NCCO)c2)=Nc2ccc(-n3cccc3)cc2N1 [Example 24]
Outgoing: 228 to 230 °C

Incoming: Now the compound CNCc1coc(-c2cccc(C3=Nc4ccc(-n5cccc5)cc4NC(=O)C3)c2)n1 [Example 79]
Outgoing: 182 to 183 °C

Proceeding to the next compound to report its melting point.
Incoming: I would be grateful if you could share the reported melting point for N#Cc1cccc(C2=Nc3ccc(-n4cc(C#N)c(-c5ccccc5)c4)cc3NC(=O)C2)c1 [Example 6] .
Outgoing: 274 °C (dec.)

###

ENDPOINT: melting point

// solved cases for melting point follow
Incoming: I would be grateful if you could share the reported melting point for NC(=O)c1nc(-c2cccc(C3=Nc4ccc(-n5cccc5)cc4NC(=O)C3)c2)cs1 .
Outgoing: 267 to 269 °C

Incoming: Now the compound N#CCc1cc2c(cc1I)NC(=O)CC(c1cccc(-n3ccnc3)c1)=N2
Outgoing: 243 to 245 °C

Incoming: Now the compound NC(=O)c1cccc(C2=Nc3ccc(-n4cccc4)cc3NC(=O)C2)c1
Outgoing: 238 to 239 °C (dec.)

Incoming: Now the compound O=C1CC(c2cccc(-c3nc(CO)co3)c2)=Nc2ccc(-n3cccc3)cc2N1
Outgoing: 240 to 242 °C

---
Incoming: I would be grateful if you could share the reported melting point for O=C1CC(c2cccc(I)c2)=Nc2ccc(-n3cccc3)cc2N1 .
Outgoing: 215 to 217 °C (dec.)

Incoming: Now the compound N#Cc1cc(C2=Nc3cc(N4CCSCC4)c(C(F)(F)F)cc3NC(=O)C2)ccn1
Outgoing: 195 to 199 °C

Incoming: Now the compound O=C1CC(c2cccc(-c3nc(C(=O)NCCO)co3)c2)=Nc2ccc(-n3cccc3)cc2N1
Outgoing: 242 to 244 °C

###

ENDPOINT: melting point

// solved cases for melting point follow
Incoming: I would be grateful if you could share the reported melting point for Cc1cc(-c2cccc(C3=Nc4cc(N5CCOCC5)c(C#N)cc4NC(=O)C3)c2)on1 .
Outgoing: 252 °C

Incoming: Now the compound Cc1cc2c(cc1C(F)(F)F)NC(=O)CC(c1cccc(-c3nc(CO)sc3C)c1)=N2
Outgoing: 214 to 217 °C

Incoming: Now the compound NC(=O)c1coc(-c2cccc(C3=Nc4ccc(-n5cccc5)cc4NC(=O)C3)c2)n1
Outgoing: 232 to 234 °C

Incoming: Now the compound O=C1CC(c2cccc(-n3ccnn3)c2)=Nc2ccc(-n3cccc3)cc2N1
Outgoing: 206 to 209 °C

Incoming: Now the compound Cc1cc2c(cc1C(F)(F)F)NC(=O)CC(c1cccc(-n3ccnn3)c1)=N2
Outgoing: 237 °C

---
Incoming: I would be grateful if you could share the reported melting point for CN(C)Cc1coc(-c2cccc(C3=Nc4ccc(-n5cccc5)cc4NC(=O)C3)c2)n1 .
Outgoing: 172 to 175 °C

Incoming: Now the compound Cc1cc(-c2cccc(C3=Nc4cc(N5CCSCC5)c(C(F)(F)F)cc4NC(=O)C3)c2)on1
Outgoing: 230 to 233 °C

Incoming: Now the compound O=C1CC(c2cccc(-n3nncc3CO)c2)=Nc2cc(Cl)c(C(F)(F)F)cc2N1
Outgoing: 198 °C

Incoming: Now the compound O=C1CC(c2cccc(-c3nc(CO)cs3)c2)=Nc2ccc(-n3cccc3)cc2N1
Outgoing: 238 to 240 °C

###

Recorded measurements of melting point, one per entry
Kindly answer with a numeric value in °C, unit omitted.

// solved cases for melting point follow
Incoming: I would be grateful if you could share the reported melting point for O=C1CC(c2cccc(-n3cccn3)c2)=Nc2cc(N3CCOCC3)c(C(F)(F)F)cc2N1 [Example 49] .
Outgoing: 166

Incoming: Now the compound O=C1CC(c2cccc(-n3ncnc3CO)c2)=Nc2cc(Cl)c(C(F)(F)F)cc2N1 [Example 64]
Outgoing: 212

Incoming: Now the compound CCOc1cc2c(cc1C(F)(F)F)NC(=O)CC(c1cccc(-n3nncc3CNC3CC3)c1)=N2 [Example 54]
Outgoing: 80

Incoming: Now the compound O=C1CC(c2cccc(-n3nncc3CO)c2)=Nc2cc(N3CCOCC3)c(C(F)(F)F)cc2N1 [Example 1]
Outgoing: 200

Incoming: Now the compound Cc1cc(-c2cccc(C3=Nc4cc(N5CCOCC5)c(C(F)(F)F)cc4NC(=O)C3)c2)on1 [Example 3]
Outgoing: 170

---
Incoming: I would be grateful if you could share the reported melting point for O=C1CC(c2cccc(-n3ncnc3CNC3CC3)c2)=Nc2cc(Cl)c(C(F)(F)F)cc2N1 [Example 66] .
Outgoing: 191

Incoming: Now the compound CCOc1cc2c(cc1C(F)(F)F)NC(=O)CC(c1cccc(-n3nncc3CO)c1)=N2 [Example 52]
Outgoing: 214

Incoming: Now the compound N#Cc1cc2c(cc1N1CCOCC1)N=C(c1cccc(-n3nncc3CO)c1)CC(=O)N2 [Example 60]
Outgoing: 180

Incoming: Now the compound O=C1CC(c2cccc(-n3ccnc3)c2)=Nc2cc(Cl)c(C(F)(F)F)cc2N1 [Example 72]
Outgoing: 225

Incoming: Now the compound Cc1cc(-c2cccc(C3=Nc4cc(Cl)c(C(F)(F)F)cc4NC(=O)C3)c2)on1 [Example 65]
Outgoing: 252

###

ENDPOINT: melting point

// solved cases for melting point follow
Incoming: I would be grateful if you could share the reported melting point for O=C1CC(c2cccc(-c3nc(CN4CCOCC4)co3)c2)=Nc2ccc(-n3cccc3)cc2N1 [Example 81] .
Outgoing: 166 to 167 °C

Incoming: Now the compound Cc1cc(-c2cccc(C3=Nc4ccc(-n5cccc5)cc4NC(=O)C3)c2)on1 [Example 29]
Outgoing: 248 to 250 °C

Incoming: Now the compound O=C1CC(c2cccc(-c3csc(CO)n3)c2)=Nc2ccc(-n3cccc3)cc2N1 [Example 33]
Outgoing: 185 to 190 °C (dec.)

Incoming: Now the compound CCOC(=O)c1ncoc1-c1cccc(C2=Nc3ccc(-n4cccc4)cc3NC(=O)C2)c1 [Example 23]
Outgoing: 222 to 224 °C

Incoming: Now the compound O=C1CC(c2cccc(-n3nncc3CO)c2)=Nc2cc(F)c(C(F)(F)F)cc2N1 [Example 51]
Outgoing: 197 to 199 °C

Incoming: Now the compound Cc1cc2c(cc1C(F)(F)F)NC(=O)CC(c1cccc(-c3ncoc3C)c1)=N2 [Example 83]
Outgoing: 241 to 242 °C

---
Incoming: I would be grateful if you could share the reported melting point for CCOC(=O)c1nc(-c2cccc(C3=Nc4ccc(-n5cccc5)cc4NC(=O)C3)c2)cs1 [Example 28] .
Outgoing: 213 to 215 °C

Incoming: Now the compound N#Cc1cc(C2=Nc3ccc(-n4cccc4)cc3NC(=O)C2)ccn1 [Example 82]
Outgoing: 243 to 244 °C

Incoming: Now the compound CCOC(=O)c1csc(-c2cccc(C3=Nc4ccc(-n5cccc5)cc4NC(=O)C3)c2)n1 [Example 19]
Outgoing: 198 to 201 °C
